# credit: patent US20260125375A1

The compounds listed here are annotated with their Ki.
- Test system: CBL-B (residues 36-427) (Homo sapiens, UniProt Q13191)
- Construct: Purified CBL-B (residues 36-427) and C-CBL (residues 46-435) proteins from baculovirus-infected insect cells; made in house; host or cells: baculovirus-infected insect cells
- Test protocol: Ligand Displacement Assay (LDA), HTRF competitive binding against BODIPY-labeled fluorescent tracer, CBL-B
- Details: geometric mean of the number of tests, read-out: CBL-B Ki (nM) GMean
Please respond with the number in nM and leave the unit unwritten.

Illustrative cases are given below, each with its answer.
>>> observed_value("CC1CN(Cc2nc(C(F)(F)F)cc3c(-c4cccc(C5(Cc6nncn6C)COC5)c4)n[nH]c23)CCC1(F)F (single isomer, unassigned) [Example C32]")
6.7
>>> observed_value("C[C@@H](NC1CCCC1)c1nc(C(F)(F)F)cc2c(-c3cccc([C@H](c4nncn4C)C4CCC4)c3)n[nH]c12 (single isomer, unassigned)")
0.6
>>> observed_value("CN(C)c1nc2[nH]nc(-c3cccc([C@H](c4nncn4C)C4CCC4)c3)c2cc1C(F)(F)F [Example E1]")
268
>>> observed_value("CCNC(C)c1nc(C(F)(F)F)cc2c(-c3cccc(C4(Cc5nncn5C)COC4)c3)n[nH]c12 (single isomer, unassigned) [Example C84]")
25.1
>>> observed_value("C[C@@H](N[C@H]1C[C@@H](O)C1)c1nc(C(F)(F)F)cc2c(-c3cccc([C@H](c4nncn4C)C4CCC4)c3)n[nH]c12 (single isomer, unassigned)")
5.3

Next:
Ask: Record `C[C@H](N[C@H]1CCC(F)(F)C1)c1nc(C(F)(F)F)cc2c(-c3cccc([C@H](c4nncn4C)C4CCC4)c3)n[nH]c12` : what is its Ki with CBL-B (residues 36-427) (Homo sapiens, UniProt Q13191)?
Reply: 1.1

====

- Test system: C-CBL (Homo sapiens)
- Construct: endogenous in cells; host or cells: Jurkat HiBit-IL2 reporter cells, CBL-B knocked out by CRISPR
- Test protocol: Jurkat HiBit-IL2 assay (CBL-B KO), reporter cell line expressing C-CBL only
- Type: cell-based
- Details: CBL-B KO (expressing C-CBL only), geometric mean, Table 16b (further repetition), read-out: CBL-B KO EC50 (nM) GMean
Quantity name: EC50 (nM)
Reply with just the number (in nM).

Study these solved cases before continuing.
>>> observed_value("C[C@H](O)CN[C@H](C)c1nc(C(F)(F)F)cc2c(-c3cccc([C@H](c4nncn4C)C4CCC4)c3)n[nH]c12 (single isomer, unassigned)")
137
>>> observed_value("C[C@H](c1nc(C(F)(F)F)cc2c(-c3cccc([C@H](c4nncn4C)C4CCC4)c3)n[nH]c12)N1CC(C)(O)C1 (single isomer, unassigned)")
1520
>>> observed_value("CC(O)CNC(C)c1nc(C2CC2)cc2c(-c3cccc(C(c4nncn4C)C4CCC4)c3)n[nH]c12 (single isomer, unassigned) [Example H1]")
485

Ask: What does the data say about its EC50? Entry: C[C@@H](CO)N[C@H](C)c1nc(C(F)(F)F)cc2c(-c3cccc([C@H](c4nncn4C)C4CCC4)c3)n[nH]c12 (single isomer, unassigned)
Reply: 577

====

- Test system: C-CBL (46-435) (Homo sapiens)
- Construct: N-terminal biotinylated WT CBL-B (36-427) and C-CBL (46-435) were captured on a streptavidin (SA) coated sensor chip
- Test protocol: Surface Plasmon Resonance (SPR) assay, binding affinity and kinetics, C-CBL
- Details: SPR at 10° C., biotinylated C-CBL (46-435) on streptavidin chip; geometric mean; read-out: C-CBL SPR Kd (nM) GMean
// values below are reported Kd
Hi! Could you send only the number? It should be in nM, unit omitted.

Some solved cases for reference:
>>> observed_value("C[C@H](c1nc(C(F)(F)F)cc2c(-c3cccc(C4(Cc5nncn5C)COC4)c3)n[nH]c12)N1CC(F)C1 (single isomer, unassigned)")
74
>>> observed_value("C[C@@H](N[C@@H]1CCOC1)c1nc(C(F)(F)F)cc2c(-c3cccc([C@H](c4nncn4C)C4CCC4)c3)n[nH]c12 (single isomer, unassigned)")
124

Please examine the following record next.
Ask: # value lookup — system C-CBL (46-435) (Homo sapiens), readout Kd, item C[C@@H](NC1CC(F)(F)C1)c1nc(C(F)(F)F)cc2c(-c3cccc([C@H](c4nncn4C)C4CCC4)c3)n[nH]c12 (single isomer, unassigned)
Reply: 35.4
